MEASURED ON: BTK enzyme (recombinant full-length BTK, hBTK) (Homo sapiens)
Construct: recombinant protein from baculovirus-transfected Sf9 cells: full-length BTK, 6HIS-tag cleaved; 6HIS (cleaved yes); made in house; host or cells: baculovirus-transfected Sf9 cells
Sequence (Q06187 whole entry): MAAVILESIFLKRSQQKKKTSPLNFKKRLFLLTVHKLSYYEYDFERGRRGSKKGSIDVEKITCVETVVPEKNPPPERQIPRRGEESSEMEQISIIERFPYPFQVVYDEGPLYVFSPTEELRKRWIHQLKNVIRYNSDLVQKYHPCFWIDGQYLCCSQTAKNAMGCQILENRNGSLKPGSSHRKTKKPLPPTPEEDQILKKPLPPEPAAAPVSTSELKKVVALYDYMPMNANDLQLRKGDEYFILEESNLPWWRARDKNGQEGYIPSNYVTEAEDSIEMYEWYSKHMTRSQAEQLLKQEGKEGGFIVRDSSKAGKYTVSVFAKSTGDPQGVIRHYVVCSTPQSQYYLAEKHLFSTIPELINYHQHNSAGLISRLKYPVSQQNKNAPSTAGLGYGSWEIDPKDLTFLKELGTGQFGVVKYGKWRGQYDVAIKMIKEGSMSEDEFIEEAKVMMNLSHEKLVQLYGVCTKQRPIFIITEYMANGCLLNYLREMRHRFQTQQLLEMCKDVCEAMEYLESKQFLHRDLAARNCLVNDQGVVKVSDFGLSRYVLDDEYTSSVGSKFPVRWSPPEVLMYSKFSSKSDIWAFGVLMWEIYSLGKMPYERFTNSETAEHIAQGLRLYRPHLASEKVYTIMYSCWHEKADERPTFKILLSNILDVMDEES
ASSAY DETAILS: BTK enzyme activity assay, LANCE TR-FRET
Type: biochemical
CONDITION: 50 pM hBTK, 2 μM biotin-A5-peptide, 25 μM ATP; 60 min compound & enzyme incubation; read-out: IC50 BTK activity value
# IC50 values compiled below
Express it in nM; write the number only.

What the record says about "Cn1nc(NC(=O)c2ccc(-c3nc([C@@H]4CC[C@H]5CCC(=O)N5C4)n4c(Cl)cnc(N)c34)c(OC3CC3)c2)cc1C(F)(F)F" : IC50 is 0.44

# IC50 (molecule: "Nc1nccn2c([C@@H]3CC[C@H]4CCC(=O)N4C3)nc(-c3ccc(C(=O)Nc4cc(C(F)F)ccn4)c(F)c3)c12" ) is 1.5

response.value for "COc1cc(C(=O)Nc2cc(C(F)(F)F)ccn2)cc(F)c1-c1nc([C@@H]2CC[C@H]3CCC(=O)N3C2)n2ccnc(N)c12" (field: IC50) = 0.28

Per the records, this molecule ( Nc1nccn2c([C@H]3CC[C@@H]4COC(=O)N4C3)nc(-c3ccc(C(=O)Nc4cc(C(F)(F)F)ccn4)cc3F)c12 (stereo in doubt) ) has IC50 equal to 1.3

The reported IC50 of the molecule "COc1cc(C(=O)Nc2cc(C(F)(F)F)ccn2)ccc1-c1nc([C@@H]2CC[C@@H]3N(C2)C(=O)OC3(C)C)n2ccnc(N)c12" was 0.18
